study-target: Replicase polyprotein 1ab (Severe acute respiratory syndrome coronavirus 2)
assay-details: Inhibition of N-terminal His6-tagged recombinant full length SARS-CoV-2 3CLpro expressed in Escherichia coli BL21(DE3) using MCA-AVLQSGFR-Lys(Dnp)-Lys-NH2 as fluorogenic substrate preincubated with compound for 10 mins followed by substrate addition by FRET assay
pIC50: −log10 of the molar value.
attribute-measured: pIC50

1. N#CSCC(=O)N1c2ccccc2CCc2ccccc21
5.65
2. CCC(=O)c1ccc2c(c1)N(C(=O)CSC#N)c1ccccc1S2
5.48
3. N#CSCC(=O)N1c2ccccc2CCc2ccc(Cl)cc21
6.32
4. N#CSCC(=O)N1c2ccccc2Sc2ccc(Cl)cc21
6.28
5. N#CSCC(=O)N1c2ccccc2Sc2ccc(C(F)(F)F)cc21
5.34
6. N#CSCC(=O)N1c2ccccc2Oc2ccccc21
5.40
7. N#CSCC(=O)N1c2ccccc2Sc2ccc(C#N)cc21
6.49
8. CC(=O)c1ccc2c(c1)N(C(=O)CSC#N)c1ccccc1S2
5.98
9. N#CSCC(=O)N1c2ccccc2Sc2ccccc21
5.73
10. COc1ccc2c(c1)N(C(=O)CSC#N)c1ccccc1S2
5.54
11. CCSc1ccc2c(c1)N(C(=O)CSC#N)c1ccccc1S2
5.58

---

pIC50: −log10 of the molar value.
In what follows, each item is paired with its pIC50 for Caspase-6 (Homo sapiens).
attribute-measured: pIC50

1) N#CSCC(=O)N1c2ccccc2CCc2ccccc21
< 4.30
2) N#CSCC(=O)N1c2ccccc2Sc2ccc(C#N)cc21
< 4.30

---

study-target: UniProt:P0DTD1
assay-details: Inhibition of SARS-CoV-2 PLpro using RLRGG-AMC as fluorogenic substrate preincubated with compound for 30 mins followed by substrate addition by fluorescence based microplate reader assay
pIC50: −log10 of the molar value.
attribute-measured: pIC50

1. N#CSCC(=O)N1c2ccccc2CCc2ccccc21
< 4.00
2. N#CSCC(=O)N1c2ccccc2Sc2ccc(C#N)cc21
< 4.00

---

study-target: Procathepsin L (Homo sapiens)
Sequence (P07711 whole entry): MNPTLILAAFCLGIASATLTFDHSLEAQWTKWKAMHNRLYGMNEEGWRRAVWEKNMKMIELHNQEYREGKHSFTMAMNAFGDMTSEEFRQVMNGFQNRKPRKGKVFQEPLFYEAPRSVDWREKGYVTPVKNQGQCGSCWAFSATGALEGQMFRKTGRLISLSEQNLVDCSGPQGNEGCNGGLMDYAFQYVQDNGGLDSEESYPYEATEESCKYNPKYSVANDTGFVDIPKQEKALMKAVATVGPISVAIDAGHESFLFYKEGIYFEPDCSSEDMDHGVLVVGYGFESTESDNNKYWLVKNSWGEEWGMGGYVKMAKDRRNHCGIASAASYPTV
attribute-measured: IC50

1) N#CSCC(=O)N1c2ccccc2Sc2ccc(C#N)cc21
> 100 µM
